Would you kindly list ELISA (T/B) for each of these binders?
tested_on: T1, human plasma kallikrein (human, UniProt P03952 20-390; P03952 391-638)
T1 construct: also called pKal; Human pKal
assay_protocol: ELISA, biotinylated pKal signal over streptavidin background
Description: Abbreviations used: “T/B” is the ELISA signal obtained using of the “target” (biotinylated plasma kallikrein) divided by the ELISA signal of the “background” (streptavidin); both of which were coated on microtiter plates, “nd” is not determined. The symbol “q” refers to the amber suppressible stop codon (TAG), which is translated as glutamine (Q) in strains of E. coli such as the TG1 cells that were used to express the Fab fragments.
Numbers only, in T/B.

Worked examples follow.
binder	unit_of_measure	ELISA (T/B)
M160-G12 (Fab) (Fab, V domains shown, HC as printed runs into CH1) VH: EVQLLESGGGLVQPGGSLRLSCAASGFTFSHYLMTWVRQAPGKGLEWVSYISPSGGHTIYADSVKGRFTISRDNSKNTLYLQMNSLRAEDTAVYYCARVARGIAARSRTSYFDYWGQGTLVTVSS VL: DIQMTQSPSFLSASVGDRVTITCRASQGISSYLAWYQQKPGKAPKLLIYAASTLQSGVPSRFSGSGSGTEFTLTISSLQPEDFATYYCQQLNSYPLTFGGGTKVEIK	T/B	38.3
M9-F09 (Fab, V domains shown, HC as printed runs into CH1; (as printed for M28-E01)) VH: EVQLLESGGGLVQPGGSLRLSCAASGFTFSSYPMGWVRQAPGKGLEWVSRISSSGGMTIYADSVKGRFTISRDNSKNTLYLQMNSLRAEDTAVYYCARDDWNVGMDVWGQGTTVTVSS VL: DIQMTQSPSSLSASVGDRVTITCRASQSISSYLNWYQQKPGKAPKLLIYAASSLQSGVPSKFSGSGSGTDYTLTISSLQPEDFATYYCQQTYTTPWTFGQGTKVEIK	T/B	7
M77-C07 (Fab, V domains shown, HC as printed runs into CH1) VH: EVQLLESGGGLVQPGGSLRLSCAASGFTFSLYIMGWVRQAPGKGLEWVSGIYPSGGFTMYADSVKGRFTISRDNSKNTLYLQMNSLRAEDTAVYYCARESSGVAAPDYWGQGTLVTVSS VL: DIQMTQSPSTLSASVGDRVTITCRASQNISSYLNWYQQKPGKAPKLLIYAASSLQSGVPSRFSGSGSGTDFTLTISSLQPEDFATYSCQQSYSTPRTFGQGTKVEIK	T/B	16.1
M74-A07 (Fab, V domains shown, HC as printed runs into CH1) VH: EVQLLESGGGLVQPGGSLRLSCAASGFTFSQYLMMWVRQAPGKGLEWVSSIYPSGGYTSYADSVKGRFTISRDNSKNTLYLQMNSLRAEDTAVYYCARVSTAVADNDYWGQGTLVTVSS VL: DIQMTQSPSSLSASVRDRVTITCRTSQNINTYLNWYYQAPGRAPKLLIFGVSSLHRGVSSRFSGSGDGTEFTLTISSLQPEDIGTYFCQQSYSSPWTFGQGTKVEIK	T/B	8.6

Each binder below has a recorded value; state its ELISA (T/B).
1. M10-A03 (Fab, V domains shown, HC as printed runs into CH1) VH: EVQLLESGGGLVQPGGSLRLSCAASGFTFSPYPMQWVRQAPGKGLEWVSSISSSGGMTEYADSVKGRFTISRDNSKNTLYLQMNSLRAEDTAVYYCARDDYGGKGGAFDIWGQGTMVTVSS VL: DIQMTQSPSSLSASVGDRVTITCRASQRISFYLNWFQQKPGKAPNLLIYGASSLQSGVPSRFSGSGSGTDFTLTISSLQPKDFGTYYCQQTFSTPNTFGQGTKLEIK
2. M29-E02 (Fab, V domains shown, HC as printed runs into CH1) VH: EVQLLESGGGLVQPGGSLRLSCAASGFTFSRYPMMWVRQAPGKGLEWVSVIYPSGGDTFYADSVKGRFTISRDNSKNTLYLQMNSLRAEDTAVYYCASGDDYLWEAAVYWGQGTLVTVSS VL: QSVLTQPPSVSEAPRQRVTISCSGSSSNIGNNAVSWYQQLPGKAPKLLIYYDDLLPSGVSDRFSGSKSGTSASLAISGLRSEDEADYYCAAWDDSLNGFVFGTGTKVTVL
3. M28-E01 (Fab, V domains shown, HC as printed runs into CH1) VH: EVQLLESGGGLVQPGGSLRLSCAASGFTFSSYPMGWVRQAPGKGLEWVSRISSSGGMTIYADSVKGRFTISRDNSKNTLYLQMNSLRAEDTAVYYCARDDWNVGMDVWGQGTTVTVSS VL: DIQMTQSPSSLSASVGDRVTITCRASQSISSYLNWYQQKPGKAPKLLIYAASSLQSGVPSKFSGSGSGTDYTLTISSLQPEDFATYYCQQTYTTPWTFGQGTKVEIK
4. M10-B09 (Fab, V domains shown, HC as printed runs into CH1; HC amber q (LqMNS) written as Q) VH: EVQLLESGGGLVQPGGSLRLSCAASGFTFSWYEMSWVRQAPGKGLEWVSRIWPSGGVTMYADSVKGRFTISRDNSKNTLYLQMNSLRAEDTAVYYCTRTSITTVGMDVWGQGTTVTVSS VL: DIQMTQSPSSLSASVGDGVTITCRASQSISTYLNWYQQRPGKAPKLLIYGASSLQSGVPSRFSGSGSGTDFTLTISSLQREDFATYYCQQSFSTPWTFGQGTRVEIK
5. M11-G09 (Fab, V domains shown, HC as printed runs into CH1) VH: EVQLLESGGGLVQPGGSLRLSCAASGFTFSLYNMTWVRQAPGKGLEWVSYIYPSGGGTHYADSVKGRFTISRDNSKNTLYLQMNSLRAEDTAVYYCARDTGFWSADAFDIWGQGTMVTVSS VL: DIQMTQSPSSLSASVGDRVTITCRTSQGINHYLNWYQQKPGKAPKILVFAASELQTGVPSRFSGTGSGTSYTLTITSLQPEDVATYYCQQTYTSPYTFGQGTKLEVK

Response line:
33.7
2
41
14.1
23.6

The reported measurements were obtained from patent US20260184815A1.
